Hey, just so you know, these numbers are from paper PMC10397247.

Assay system: T1, O8-bP
T1 chain: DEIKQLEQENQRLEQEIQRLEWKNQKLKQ
Experiment: two-hybrid library CCNG1;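 further: natural log of median RNA to DNA barcode read ratio; higher means stronger binding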
Each entry below lists one item and its recorded interaction score value.
Recorded metric: interaction score

1. DEIKQLEQKIQRLKQKNQRLKWKNQKLKQ [O12-bP] :: -1.25
2. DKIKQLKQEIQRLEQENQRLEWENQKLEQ [O11-bP] :: -0.376
3. DKIKQLKQEIQRLEQKNQRLKWKNQKLKQ [O4-bP] :: -2.5
4. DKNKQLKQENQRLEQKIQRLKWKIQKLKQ [O10-bP] :: -1.81
5. DEIKQLEQENQRLEQEIQRLEWKNQKLKQ [O8-bP] :: -1.1
6. DKNKQLKQKIQRLKQENQRLEWKIQKLKQ [O6-bP] :: -2.38
7. DKNKQLKQKIQRLKQKNQRLKWEIQKLEQ [O13-bP] :: -0.609
8. DEIKQLEQENQRLEQKIQRLKWENQKLEQ [O15-bP] :: -0.223
9. DKNKQLKQENQRLEQEIQRLEWEIQKLEQ [O1-bP] :: -1.95
10. DENKQLEQKNQRLKQKIQRLKWKIQKLKQ [O2-bP] :: -1.21
11. DENQELEKKNEELKRKIWELKKKIQELKR [O2-bH] :: -0.645
12. DKNQQLEQKNQELEQEIQELEWKIQELKQ [4H3462-bN] :: -2.6
